- targetUnderTest: T1, human HER2 His6 protein, extracellular domain (NCBI NP_004439.2, Met 1-Thr 652), C-terminal polyhistidine tag (human, UniProt P04626 23-652)
- T1 construct: range 1-652; The stated range includes Met 1; also called HER2-ECD; human HER2-ECD
- assayProtocol: ForteBio OCTET R2, antibody captured on Protein A sensor, HER2 protein in solution, 25 °C
quantity: koff (s⁻¹)
One number for each entry, in s⁻¹.

Entry HER2 VHH-FC1 fusion protein 1-B05 (Fc fusion, 25; also called 1-B05-FC1; chimeric nanobody 1-B05) AVQLVESGGGPGGSLRLSCAASGITFFRHTLGWYRQAPGKQRELVASITGGESTNYADSVKSRFTISRDNAKNMVFLQMNSLKPEDTALYYCNSKWDAAGVEFWGKGTLVTVSSEPKSSDKTHTCPPCPAPEFEGGPSVFLFPPKPKDTLMISRTPEVTCVVVDVSHEDPEVKFNWYVDGVEVHNAKTKPREEQYNSTYRVVSVLTVLHQDWLNGKEYKCKVSNKALPASIEKTISKAKGQPREPQVYTLPPSRDELTKNQVSLTCLVKGFYPSDIAVEWESNGQPENNYKTTPPVLDSDGSFFLYSKLTVDKSRWQQGNVFSCSVMHEALHNHYTQKSLSLSPGK has what koff? 0.0108
